assay: NCI Yeast Anticancer Drug Screen. Data for the rad50 strain (AID 155);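 note: 0% = growth of vehicle-only cultures of the same strain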; details: S. cerevisiae rad50 strain growth inhibition; at 50.0 µM; hits give high values
This is part of a sample that, as a whole, favours compounds with a hit. Of some 79,000 tested, about 15% had one in any assay.
Field: growth inhibition. Provide a value for each of the compounds that follow.
Quick note: give the figure in %, leave out the unit.

Exam item: For the compound `CCOC(=O)C(C#N)=C1c2ccccc2Oc2ccccc21` , give its reported growth inhibition.
Marked response: -3.7

Exam item: For the compound NC(=S)N/N=C\C(CC(O)C(O)CO)=N\NC(N)=S (stereo unspecified) , give its reported growth inhibition.
Marked response: 4.95

Exam item: For the compound CC12CC3CC/C(=N\O)C(C1)C3(N1CCOCC1)C/C2=N/O (stereo unspecified) , give its reported growth inhibition.
Marked response: -22.2

Exam item: For the compound CN1CCCC(C(O)c2ccccc2)S1(=O)=O (stereo unspecified) , give its reported growth inhibition.
Marked response: 17.2

Exam item: For the compound `COc1cc(N=Nc2ccc(N)nc2N)c(OC)cc1N=Nc1ccc([N+](=O)[O-])cc1` , give its reported growth inhibition.
Marked response: 12.6

Exam item: For the compound C=CC12c3c4cc(OC)cc3OC1C(O)CCC2CC4 (stereo unspecified) , give its reported growth inhibition.
Marked response: -8.05

Exam item: For the compound `CSC(=N)N1N=C2c3ccccc3CC[C@@H]2[C@@H]1c1ccccc1` , give its reported growth inhibition.
Marked response: -0.1

Exam item: For the compound Cc1cccc(NC(C(=O)O)c2ccccc2)c1 (stereo unspecified) , give its reported growth inhibition.
Marked response: -13.8

Exam item: For the compound CC1(Cn2ccc(=O)[nH]c2=O)CC(C2(C)OCCO2)C(=O)O1 (stereo unspecified) , give its reported growth inhibition.
Marked response: -16.6

Exam item: For the compound C=C1CC2(C)C(=O)CCCC2OC1=O (stereo unspecified) , give its reported growth inhibition.
Marked response: 4.05

Exam item: For the compound `CC(=O)NCC(N)=S` , give its reported growth inhibition.
Marked response: 5.85
